Data credit: PubChem BioAssay AID518

# study_system: Alkaline phosphatase, tissue-nonspecific isozyme (Homo sapiens) (UniProt P05186)
# Sequence (P05186 whole entry, looked up): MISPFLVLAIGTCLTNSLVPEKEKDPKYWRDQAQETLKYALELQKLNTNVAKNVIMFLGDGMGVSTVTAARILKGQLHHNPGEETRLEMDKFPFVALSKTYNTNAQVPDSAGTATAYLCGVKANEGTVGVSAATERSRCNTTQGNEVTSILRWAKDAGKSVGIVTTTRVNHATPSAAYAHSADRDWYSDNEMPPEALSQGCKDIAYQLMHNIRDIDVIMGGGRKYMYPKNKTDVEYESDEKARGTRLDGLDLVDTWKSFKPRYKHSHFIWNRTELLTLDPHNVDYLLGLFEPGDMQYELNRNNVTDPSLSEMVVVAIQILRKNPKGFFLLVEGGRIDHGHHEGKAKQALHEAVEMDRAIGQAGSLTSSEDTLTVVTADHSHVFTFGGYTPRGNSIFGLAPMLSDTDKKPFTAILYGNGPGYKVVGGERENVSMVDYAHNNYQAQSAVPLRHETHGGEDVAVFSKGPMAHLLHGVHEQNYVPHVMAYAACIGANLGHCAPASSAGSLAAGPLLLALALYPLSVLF
# test_name: inhibition of tissue-nonspecific alkaline phosphatase – biochemical, luminescent (AID 518);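 note: plate controls were vehicle for no effect and reference inhibitor for full effect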
# stated_conditions: purified TNAP enzyme, luminescent substrate readout; at 20 µM; stronger effect = higher value
Out of some 64,000 compounds screened, about 55 (0.09%) were called active. The list is a sample of the results.
quantity_kind: inhibition (%)

[[record]]
compound = "COc1ccccc1C1C2C(=O)N(c3ccccc3)C(=O)C2ON1c1ccccc1 (stereo not drawn)"
study_system = "Alkaline phosphatase, tissue-nonspecific isozyme (Homo sapiens) (UniProt P05186)"
quantity_kind = "inhibition"
unit_info = "%"
readout_number = -0.2

[[record]]
compound = "O=C(c1ccc(-c2ccccc2)cc1)N1CCN(c2nc3ccccc3o2)CC1"
study_system = "Alkaline phosphatase, tissue-nonspecific isozyme (Homo sapiens) (UniProt P05186)"
quantity_kind = "inhibition"
unit_info = "%"
readout_number = -3.8

[[record]]
compound = "O=C(c1ccc(Cl)cc1)N1CCC(c2nc(-c3cccs3)no2)CC1"
study_system = "Alkaline phosphatase, tissue-nonspecific isozyme (Homo sapiens) (UniProt P05186)"
quantity_kind = "inhibition"
unit_info = "%"
readout_number = 13.1

[[record]]
compound = "O=C(CSCc1ccccc1)N1CCN(c2ccc(F)cc2)CC1"
study_system = "Alkaline phosphatase, tissue-nonspecific isozyme (Homo sapiens) (UniProt P05186)"
quantity_kind = "inhibition"
unit_info = "%"
readout_number = 5.6

[[record]]
compound = "Cn1c(SCC(=O)N2CCOCC2)nnc1-c1ccccc1"
study_system = "Alkaline phosphatase, tissue-nonspecific isozyme (Homo sapiens) (UniProt P05186)"
quantity_kind = "inhibition"
unit_info = "%"
readout_number = 3.9

[[record]]
compound = "Oc1ccccc1Oc1ncc(Br)c(N2CCOCC2)n1"
study_system = "Alkaline phosphatase, tissue-nonspecific isozyme (Homo sapiens) (UniProt P05186)"
quantity_kind = "inhibition"
unit_info = "%"
readout_number = -1.3

[[record]]
compound = "CCOC(=O)C1CCN(C(=O)COC(=O)CCOc2ccc(C)cc2)CC1"
study_system = "Alkaline phosphatase, tissue-nonspecific isozyme (Homo sapiens) (UniProt P05186)"
quantity_kind = "inhibition"
unit_info = "%"
readout_number = 7.4

[[record]]
compound = "COC(=O)c1ccc(NC(=O)COc2ccc(S(=O)(=O)NC(C)C)cc2)cc1"
study_system = "Alkaline phosphatase, tissue-nonspecific isozyme (Homo sapiens) (UniProt P05186)"
quantity_kind = "inhibition"
unit_info = "%"
readout_number = -1.4


###

Recorded inhibition values for a group of molecules are listed next.
# study_system: Alkaline phosphatase, tissue-nonspecific isozyme (Homo sapiens)
# test_name: inhibition of tissue-nonspecific alkaline phosphatase – biochemical, luminescent (AID 518);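 note: plate controls were vehicle for no effect and reference inhibitor for full effect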
# stated_conditions: purified TNAP enzyme, luminescent substrate readout; at 20 µM; stronger effect = higher value
Among all 64,000 compounds or so, about 55 (0.09%) were called active. Only a sample is shown.
quantity_kind: inhibition (%)

[[record]]
molecule = "Cc1ccc(-c2nc(CS(=O)(=O)CC(=O)N3CC(C)CC(C)C3)c(C)o2)cc1 (stereo unspecified)"
quantity_kind = "inhibition"
unit_info = "%"
readout_number = 2.5

[[record]]
molecule = "COc1ccc(S(=O)(=O)Nc2cc(Cl)ccc2OC)cc1"
quantity_kind = "inhibition"
unit_info = "%"
readout_number = 14.2

[[record]]
molecule = "CC1CCN(S(=O)(=O)c2cccc(C(=O)Nc3ccccn3)c2)CC1"
quantity_kind = "inhibition"
unit_info = "%"
readout_number = 24.3

[[record]]
molecule = "CCCCCC(=O)N1CCN(CCN=CC2=C(O)CC(c3ccco3)CC2=O)CC1 (stereo unspecified)"
quantity_kind = "inhibition"
unit_info = "%"
readout_number = 8

[[record]]
molecule = "Cc1ccc(N2C(=O)C3C(C2=O)C(C(=O)c2ccc(Cl)cc2)N2CCCC32)cc1 (stereo unspecified)"
quantity_kind = "inhibition"
unit_info = "%"
readout_number = 12

[[record]]
molecule = "Cc1cccc(NC(=O)CC(C)(C)C)c1"
quantity_kind = "inhibition"
unit_info = "%"
readout_number = 8.8

[[record]]
molecule = "COc1ccc(C(C)=O)cc1CSc1nnc(C)s1"
quantity_kind = "inhibition"
unit_info = "%"
readout_number = 7

[[record]]
molecule = "COCCNC(=O)Nc1ccc2c(c1)N(C)C(=O)CS2"
quantity_kind = "inhibition"
unit_info = "%"
readout_number = 1.5

[[record]]
molecule = "O=C(NCc1ccccc1)c1cc(=O)nc2sc(-c3ccccc3)nn12"
quantity_kind = "inhibition"
unit_info = "%"
readout_number = 9.8

[[record]]
molecule = "CC(OC(=O)CNC(=O)c1ccc2c(c1)OCO2)C(=O)NCCC1=CCCCC1 (stereo unspecified)"
quantity_kind = "inhibition"
unit_info = "%"
readout_number = 8.9

[[record]]
molecule = "CC(NC(=O)C(c1ccccc1)c1ccccc1)C(=O)O (stereo unspecified)"
quantity_kind = "inhibition"
unit_info = "%"
readout_number = 10

